These data points were gathered from patent US9156801B2.

Test system: RKO cell line
EXPERIMENT_SUMMARY: solid tumor cell growth inhibition, MTT
Type: cell-based
MEASUREMENT_CONTEXT: Homo sapiens, 72 h

MOLECULE | IC50
CCC(C)CNC(=O)C1C[C@@]2(C)C(CC[C@]3(C)C2CC=C2C4CC(C)(C)CC[C@]4(C(=O)OC)CC[C@]23C)C(C)(C)C1=O (stereo partly drawn) [BS-OA-008] | > 16 mg/L
CC1(C)CC[C@]2(C(=O)O)CC[C@]3(C)C(=CC[C@@H]4[C@@]5(C)CC(C(=O)NCCN6CCCC6)C(=O)C(C)(C)[C@@H]5CC[C@]43C)[C@@H]2C1 (stereo partly drawn) [BS-OA-105] | > 16 mg/L
COC(=O)[C@]12CCC(C)(C)CC1C1=CCC3[C@@]4(C)CC(C(=O)NC5CC5)C(=O)C(C)(C)C4CC[C@@]3(C)[C@]1(C)CC2 (stereo partly drawn) [BS-OA-034] | > 16 mg/L
